Recorded pKi, one value per entry.
Target: LRRK2 G2019S (Homo sapiens (Human), UniProt Q5S007, G2019S)
Sequence (Q5S007 whole entry G2019S): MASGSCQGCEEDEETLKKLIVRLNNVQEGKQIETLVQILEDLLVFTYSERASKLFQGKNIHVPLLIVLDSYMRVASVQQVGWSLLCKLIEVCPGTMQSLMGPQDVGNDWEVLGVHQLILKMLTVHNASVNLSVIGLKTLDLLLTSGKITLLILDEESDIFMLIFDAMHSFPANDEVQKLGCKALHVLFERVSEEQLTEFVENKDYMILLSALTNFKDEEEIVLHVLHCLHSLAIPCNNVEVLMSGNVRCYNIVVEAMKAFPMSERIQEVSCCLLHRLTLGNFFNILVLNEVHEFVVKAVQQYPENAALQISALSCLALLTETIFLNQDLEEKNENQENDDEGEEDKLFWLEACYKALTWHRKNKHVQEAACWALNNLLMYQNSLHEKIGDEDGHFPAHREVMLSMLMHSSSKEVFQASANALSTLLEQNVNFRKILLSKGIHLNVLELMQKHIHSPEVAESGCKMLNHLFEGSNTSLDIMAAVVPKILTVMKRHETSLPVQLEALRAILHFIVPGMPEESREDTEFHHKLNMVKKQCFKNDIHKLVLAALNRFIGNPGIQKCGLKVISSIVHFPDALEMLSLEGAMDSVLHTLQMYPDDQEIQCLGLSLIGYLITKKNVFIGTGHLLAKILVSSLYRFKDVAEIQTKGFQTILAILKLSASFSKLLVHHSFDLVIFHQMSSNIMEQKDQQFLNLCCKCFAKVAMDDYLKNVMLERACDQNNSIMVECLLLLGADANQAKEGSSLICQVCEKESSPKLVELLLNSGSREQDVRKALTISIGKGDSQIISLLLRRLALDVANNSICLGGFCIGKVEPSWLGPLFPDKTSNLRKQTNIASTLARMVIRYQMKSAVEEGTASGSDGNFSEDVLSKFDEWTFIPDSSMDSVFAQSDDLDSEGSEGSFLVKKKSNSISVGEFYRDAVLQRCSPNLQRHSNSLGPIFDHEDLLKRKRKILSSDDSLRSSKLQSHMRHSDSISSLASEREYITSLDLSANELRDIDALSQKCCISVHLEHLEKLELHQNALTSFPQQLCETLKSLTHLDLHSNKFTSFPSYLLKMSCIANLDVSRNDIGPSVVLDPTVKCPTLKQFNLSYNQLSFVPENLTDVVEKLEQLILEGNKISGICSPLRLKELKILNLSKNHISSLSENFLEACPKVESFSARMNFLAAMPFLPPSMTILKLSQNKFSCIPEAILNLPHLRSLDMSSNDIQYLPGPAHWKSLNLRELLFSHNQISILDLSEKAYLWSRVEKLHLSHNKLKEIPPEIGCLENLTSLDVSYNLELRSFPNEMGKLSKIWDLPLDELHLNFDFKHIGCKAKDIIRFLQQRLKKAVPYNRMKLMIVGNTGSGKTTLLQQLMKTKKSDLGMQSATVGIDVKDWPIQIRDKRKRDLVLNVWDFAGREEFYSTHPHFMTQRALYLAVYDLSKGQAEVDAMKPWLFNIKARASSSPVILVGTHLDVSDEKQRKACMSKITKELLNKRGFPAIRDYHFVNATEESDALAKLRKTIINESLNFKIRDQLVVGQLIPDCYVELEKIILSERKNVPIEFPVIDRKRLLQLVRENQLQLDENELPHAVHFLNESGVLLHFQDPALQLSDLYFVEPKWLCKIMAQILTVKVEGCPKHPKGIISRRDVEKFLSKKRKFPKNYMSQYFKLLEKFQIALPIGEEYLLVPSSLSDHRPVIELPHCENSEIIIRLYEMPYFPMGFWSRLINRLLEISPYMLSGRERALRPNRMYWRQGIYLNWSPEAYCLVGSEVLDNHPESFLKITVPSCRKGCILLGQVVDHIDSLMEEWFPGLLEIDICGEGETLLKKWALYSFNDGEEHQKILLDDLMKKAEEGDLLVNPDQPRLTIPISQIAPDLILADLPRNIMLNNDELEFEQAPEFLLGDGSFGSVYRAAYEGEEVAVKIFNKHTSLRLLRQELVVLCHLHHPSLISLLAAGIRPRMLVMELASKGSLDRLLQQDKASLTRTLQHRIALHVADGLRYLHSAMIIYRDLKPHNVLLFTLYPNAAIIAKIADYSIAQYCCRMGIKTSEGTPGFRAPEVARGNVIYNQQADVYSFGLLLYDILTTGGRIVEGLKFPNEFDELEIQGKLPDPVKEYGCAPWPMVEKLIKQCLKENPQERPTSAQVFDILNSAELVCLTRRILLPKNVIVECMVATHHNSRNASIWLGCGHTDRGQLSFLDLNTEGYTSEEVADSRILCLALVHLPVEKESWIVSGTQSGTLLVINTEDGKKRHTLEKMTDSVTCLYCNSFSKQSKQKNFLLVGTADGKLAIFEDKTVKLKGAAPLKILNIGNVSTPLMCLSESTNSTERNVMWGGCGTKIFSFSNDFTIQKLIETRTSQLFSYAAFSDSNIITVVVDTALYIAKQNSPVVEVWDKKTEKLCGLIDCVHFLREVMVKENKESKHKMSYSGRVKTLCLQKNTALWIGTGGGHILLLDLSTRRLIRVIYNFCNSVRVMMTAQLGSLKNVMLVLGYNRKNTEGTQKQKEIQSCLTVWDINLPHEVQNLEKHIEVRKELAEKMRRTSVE
Assay: In Vitro LRRK2 Lanthascreen Binding Assay
pKi here is simply -log10 of the concentration when that concentration is written in mol/L.

Look over these answered cases.
# compound, tgt, pKi
measured = [
    ("C[C@@H]1c2c(Nc3ncc(C(F)(F)F)c(NC4CC4)n3)cnn2CCN1C", "LRRK2 G2019S (Homo sapiens (Human), UniProt Q5S007, G2019S)", 7.35),
    ("CNc1nc(Nc2cnn3c2N(C)CC3)ncc1C(F)(F)F", "LRRK2 G2019S (Homo sapiens (Human), UniProt Q5S007, G2019S)", 7.51),
]

Please turn your attention to the following entry.
Need pKi, item CNc1nc(Nc2cnn3c2C(C)OCC3)ncc1C(F)(F)F (stereo not drawn) [Example 15] 6.55

###

Entries and their measured Ki follow.
Biological target: LRRK2 G2019S (Homo sapiens (Human), UniProt Q5S007, G2019S)
Experiment: In Vitro LRRK2 Lanthascreen Binding Assay
Answer with a number only, understood to be in nM.

# compound, assayValue
records = [
    ("CNc1nc(Nc2cnn3c2C(C)OC(C)C3)ncc1C(F)(F)F (single isomer, unassigned) [Example 19]", 61.3),
    ("CNc1nc(Nc2cnn3c2C(C)OCC3(C)C)ncc1C(F)(F)F (centres unmarked) [Example 11]", 212),
    ("CNc1nc(Nc2cnn3c2CCC3)ncc1C(F)(F)F", 0.6),
    ("CNc1nc(Nc2cnn3c2[C@@H](C)N(C)CC3)ncc1C(F)(F)F", 184),
]

API: value(readout=Ki, system=LRRK2 G2019S (Homo sapiens (Human), UniProt Q5S007, G2019S)) for record CCNc1nc(Nc2cnn3c2[C@@H](C)N(C)CC3)ncc1C(F)(F)F 144

###

Target: LRRK2 G2019S (Homo sapiens (Human), UniProt Q5S007, G2019S)
Test: In Vitro LRRK2 Lanthascreen Binding Assay
valueKind: pKi
Quick note: pKi values are minus log10 of concentrations in mol/L.

# annotated cases, reported pKi shown
# molecule, pKi
data = [
    ("CNc1nc(Nc2cnn3c2COC(C)(C)C3)ncc1C(F)(F)F [Example 22]", 9.05),
    ("CNc1nc(Nc2cnn3c2C(C)OC(C)C3)ncc1C(F)(F)F (stereo not drawn) [Example 18]", 8.74),
    ("CNc1nc(Nc2cnn3c2[C@H](C)N(C)CC3)ncc1C(F)(F)F [Example 5]", 7.70),
    ("CNc1nc(Nc2cc3n(n2)CCOC3)ncc1C(F)(F)F [Example 30]", 7.96),
    ("CNc1nc(Nc2cnn3c2C(C)OC(C)C3)ncc1C(F)(F)F (single isomer, unassigned) [Example 21]", 6.41),
]

Find the recorded pKi belonging to CNc1nc(Nc2cnn3c2COCC3)ncc1C(F)(F)F [Example 17] and report it. 8.64

Another: CNc1nc(Nc2cnn3c2C(C)OCC3)ncc1C(F)(F)F (single isomer, unassigned) [Example 16] 8.52

Please give the result for CNc1nc(Nc2cnn3c2CN(C)CC3)ncc1C(F)(F)F [Example 26] too. 7.47

Another molecule to look at: CCNc1nc(Nc2cnn3c2C(C)OCC3)ncc1C(F)(F)F (stereo not drawn) [Example 13] 7.32
